TESTED TARGET: Estrogen receptor (Homo sapiens) (UniProt P03372)
Sequence (P03372 whole entry, looked up): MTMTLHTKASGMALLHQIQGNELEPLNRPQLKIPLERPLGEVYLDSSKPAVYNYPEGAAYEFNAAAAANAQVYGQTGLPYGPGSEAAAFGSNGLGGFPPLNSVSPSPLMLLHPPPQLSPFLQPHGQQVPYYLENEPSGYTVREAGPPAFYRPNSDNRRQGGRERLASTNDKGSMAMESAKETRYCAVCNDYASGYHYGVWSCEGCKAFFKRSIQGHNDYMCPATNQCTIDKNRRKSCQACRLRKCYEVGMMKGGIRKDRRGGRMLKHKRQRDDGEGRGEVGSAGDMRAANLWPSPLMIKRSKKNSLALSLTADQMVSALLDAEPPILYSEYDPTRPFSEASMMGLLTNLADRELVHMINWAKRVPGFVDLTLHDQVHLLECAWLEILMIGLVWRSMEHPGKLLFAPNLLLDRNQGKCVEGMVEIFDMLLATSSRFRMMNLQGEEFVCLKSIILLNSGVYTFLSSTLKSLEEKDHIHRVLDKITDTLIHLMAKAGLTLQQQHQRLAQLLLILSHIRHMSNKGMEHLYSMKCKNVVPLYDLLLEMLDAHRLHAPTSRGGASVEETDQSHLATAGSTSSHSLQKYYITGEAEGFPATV
PROTOCOL SUMMARY: qHTS assay to identify small molecule antagonists of the estrogen receptor alpha (ER-alpha) signaling pathway (AID 743069)
CONDITIONS USED: HEK293 ER-alpha-UAS-bla, beta-lactamase ratio, antagonist mode; series mostly up to 69.4 µM
Text: National Center for Advancing Translational Sciences [NCATS] NIH Chemical Genomics Center [NCGC] U.S. Environmental Protection Agency [EPA] National Institutes of Environmental Health Sciences [NIEHS] National Toxicology Program [NTP] U.S. Food and Drug Administration [FDA] Estrogen receptor (ER), a nuclear hormone receptor, plays an important role in development, metabolic homeostasis and reproduction. […]
The source made the active and inactive calls. Calls follow the shape of the dose curve; as a rule, active = well fitted curve in the direction sought with a large enough effect in the signal ratio in the repeat runs (not every such curve was filed as active); inconclusive = weak or mixed curves, or effect the other way; inactive = no such curve, though single readings can be large or run the other way; the % refers to the signal ratio.
Pick one: True (active), False (inactive)

| MOLECULE | TESTED TARGET | LABEL CLASS |
| --- | --- | --- |
| CCn1cc(C(=O)O)c(=O)c2cc(F)c(N3CCNCC3)cc21 | Estrogen receptor (Homo sapiens) (UniProt P03372) | False |
| FC(F)(F)c1ccccc1Cl | Estrogen receptor (Homo sapiens) (UniProt P03372) | False |
| Oc1cc2c(cc1O)[C@H]1c3ccc(O)c(O)c3OC[C@@]1(O)C2 | Estrogen receptor (Homo sapiens) (UniProt P03372) | False |
| CCCCCCCC/C=C\CCCCCCCCCCCC(=O)O | Estrogen receptor (Homo sapiens) (UniProt P03372) | False |
| O=C1c2ccccc2C(=O)N1CCc1noc(-c2ccc(CN3CCCCCC3)s2)n1 | Estrogen receptor (Homo sapiens) (UniProt P03372) | False |

Outcome? `O=c1[nH]ncc2ccccc12`
False

// query: `O=C1c2ccccc2C(=O)C1(O)O`
False

What do you get for `CCOC(=O)[C@H](CCc1ccccc1)N[C@@H](C)C(=O)N(CC(=O)O)C1Cc2ccccc2C1` ?
False

`c1ccc(C[n+]2cccc3ccccc32)cc1` , same question.
True

Also need CN1CCCC(CC2c3ccccc3Sc3ccccc32)C1 (stereo not drawn) , thanks.
False

Could you do the same for `O=c1[nH]c2ccc(Cl)cc2o1` , please?
False

Can you handle `C=C(C)C(=O)OCCCCCCCCCCCCC` next?
False

Also, `CCC(C)(C)OC` please.
False
